# Tested on: methicillin resistant Staphylococcus aureus (MRSA) biofilm
# run_parameters: approximate peptide concentration […] (around 3 μg/ml); compared to untreated samples
Ends that are not written are not given here.
endpoint_name: % Biofilm inhibition (%)
Answer with a number only, understood to be in %.

>>> df
                                  substance  reported_value
0  1002-R7: single substituted 1002 peptide (VQRWLIRWRIRK-NH2) [Peptide 1002-R7]              58
1  1018-R7: single substituted 1018 peptide (VRLIVARRIWRR-NH2) [Peptide 1018-R7]               0
2  HH2-K1: single substituted HH2 peptide (KQLRIRVAVIRA-NH2)              55
3  HH2-G5: single substituted HH2 peptide (VQLRGRVAVIRA-NH2)              34
4  1002-Q10: single substituted 1002 peptide (VQRWLIVWRQRK-NH2) [Peptide 1002-Q10]              39
5  1002-G5: single substituted 1002 peptide (VQRWGIVWRIRK-NH2) [Peptide 1002-G5]              59
6  1002-A6: single substituted 1002 peptide (VQRWLAVWRIRK-NH2) [Peptide 1002-A6]              28

// moving on: another record for % Biofilm inhibition
Provide only the value of recorded % Biofilm inhibition for HH2-G3: single substituted HH2 peptide (VQGRIRVAVIRA-NH2)
21
